Kindly state Binding Similarity score for each of the entries shown.
Target: T1, wildtype feline IL-31 protein (Feline_IL31_wildtype) (feline)
T1 construct: Full length feline IL-31 with C-terminal His tag, secreted from ExpiCHO cells; also called fIL-31
T1 chain: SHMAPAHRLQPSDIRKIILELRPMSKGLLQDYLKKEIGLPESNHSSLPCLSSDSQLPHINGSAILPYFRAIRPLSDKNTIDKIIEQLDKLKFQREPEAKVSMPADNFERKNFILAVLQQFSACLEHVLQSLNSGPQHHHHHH
Assay: Biacore, feline IL-31 chip, mAb 100 nM, share of points within parent mean +/-3 SD
Parameters: key: % of mutant data points within parent mAb mean ±3 SD
Answers are plain numbers.

Here's what some known entries look like.
A06 (antibody, V domains shown) VH: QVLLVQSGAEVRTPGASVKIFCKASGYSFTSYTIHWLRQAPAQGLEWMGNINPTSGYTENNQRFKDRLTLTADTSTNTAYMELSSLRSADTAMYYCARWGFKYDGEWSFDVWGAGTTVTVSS VL: EIQMTQSPSSLSASPGDRVTITCRAAQGISIWLSWYQQKPGNIPKVLINKASNLHIGVPSRFSGSGSGTDFTLTISSLEPEDAATYYCLQSQTYPLTFGGGTKLEIK ... 89.7
A12 (antibody, V domains shown) VH: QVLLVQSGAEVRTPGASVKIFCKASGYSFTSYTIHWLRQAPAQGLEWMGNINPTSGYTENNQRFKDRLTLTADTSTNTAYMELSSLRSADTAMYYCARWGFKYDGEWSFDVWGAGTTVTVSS VL: EIQMTQSPSSLSASPGDRVTITCRASQGISAWLSWYQQKPGNIPKVLINKASNLHIGVPSRFSGSGSGTDFTLTISSLEPEDAATYYCLQSQTYPLTFGGGTKLEIK ... 25.7

# ---- query binder ----
GET /values?readout=Binding Similarity score&item= A05 (antibody, V domains shown) VH: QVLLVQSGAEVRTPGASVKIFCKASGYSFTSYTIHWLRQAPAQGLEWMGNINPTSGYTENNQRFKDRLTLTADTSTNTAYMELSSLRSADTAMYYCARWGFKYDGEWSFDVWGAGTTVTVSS VL: EIQMTQSPSSLSASPGDRVTITCAASQGISIWLSWYQQKPGNIPKVLINKASNLHIGVPSRFSGSGSGTDFTLTISSLEPEDAATYYCLQSQTYPLTFGGGTKLEIK
25.6
